tested on: Alternaria tenuis; assay: Fungicidal effect on infected agar nutrient media, colony diameter; assay type: cell-based; settings: 10 ppm; 5th day after treatment; untreated control 36.8
Measured Diameter of colony (mm) by item
Give the value, in units of mm, as a plain number.

// solved cases for Diameter of colony (mm) follow
• CC1CSP(=S)(OCCCl)O1 (centres unmarked) [Compound 4] = 23.7
• CC1OP(=S)(OCCI)SC1C (centres unmarked) [Compound 18] = 22.8
• CCCOP1(=S)OC(C)CS1 (centres unmarked) [Compound 47] = 25.7
• CC(CI)OP1(=S)OCCS1 (centres unmarked) [Compound 12] = 22.0
• CC1COP(=S)(OCCBr)S1 (centres unmarked) [Compound 8] = 26.1
• CCCCOP1(=S)OC(C)CS1 (centres unmarked) [Compound 64] = 26.1
• CC1OP(=S)(OCCBr)SC1C (centres unmarked) [Compound 17] = 23.9
• CC(CCl)OP1(=S)OC(C)C(C)S1 (centres unmarked) [Compound 34] = 25.9
• CC(C)C(C)OP1(=S)OC(C)C(C)S1 (centres unmarked) [Compound 54] = 24.6
• CC(Cl)COP1(=S)OC(C)CS1 (centres unmarked) [Compound 22] = 26.1

Consider the compound CCCCOP1(=S)OCCS1 (centres unmarked) [Compound 58] and give its measured Diameter of colony (mm). 23.9
